Here we gather log10 of Ki data for Melatonin receptor type 1B (Homo sapiens) reported by several publications.
# log10 transformed; quantity=Ki; unit=nM

Query string: Using Melatonin receptor type 1B (Homo sapiens) as the test system, report measured log10 of Ki of `CCC(=O)NCCc1c(Cc2ccccc2)[nH]c2ccccc12` .
Result string: 0.69

Query string: Recall the reported log10 of Ki of `O=C(NCCc1c(-c2ccccc2)[nH]c2ccccc12)C1CCC1` when tested on Melatonin receptor type 1B (Homo sapiens).
Sequence (P49286 whole entry): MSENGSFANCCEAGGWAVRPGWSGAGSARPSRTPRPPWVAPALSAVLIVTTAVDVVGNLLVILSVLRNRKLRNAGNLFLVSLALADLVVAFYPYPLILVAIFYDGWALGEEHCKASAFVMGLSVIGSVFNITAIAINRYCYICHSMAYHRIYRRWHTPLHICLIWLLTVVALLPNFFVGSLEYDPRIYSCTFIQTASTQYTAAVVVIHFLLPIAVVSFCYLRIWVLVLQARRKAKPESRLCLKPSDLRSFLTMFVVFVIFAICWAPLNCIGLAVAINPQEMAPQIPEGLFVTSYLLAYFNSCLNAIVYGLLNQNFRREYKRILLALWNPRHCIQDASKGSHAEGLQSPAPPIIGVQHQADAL
Result string: 1.93

Query string: // fetch log10 of Ki for CC(=O)NC1Cc2ccccc2C(c2ccccc2)C1 (centres undefined) ; system: Melatonin receptor type 1B (Homo sapiens)
Result string: 0.11

Query string: Under Melatonin receptor type 1B (Homo sapiens), report log10 of Ki for COc1ccc2[nH]cc(C3CCCN(C(C)=O)C3)c2c1 (centres undefined)
Result string: -0.10

Query string: // fetch log10 of Ki; item: COc1cccc2c1CC(Cl)(NC(C)=O)CC2 (centres undefined) ; system: Melatonin receptor type 1B (Homo sapiens)
Result string: -0.16

Query string: Tell me log10 of Ki of `COc1ccc2c(CCNC(C)=O)c[nH]c2c1` when tested on Melatonin receptor type 1B (Homo sapiens).
Result string: 0.54

Query string: For Melatonin receptor type 1B (Homo sapiens), give log10 of Ki of the listed molecule: `CCCCCC(=O)NCCc1c(Cc2ccccc2)[nH]c2ccccc12`
Result string: 3.85

Query string: Lab note: record log10 of Ki of `CC(=O)NCCc1c[nH]c2ccc(OCc3ccccc3)cc12` tested on Melatonin receptor type 1B (Homo sapiens).
Result string: 0.82

----------
Field Ki: reported value for Melatonin receptor type 1B (Homo sapiens, UniProt P49286); entries drawn from several documents.
// assign y if Ki falls strictly below 10 nM, else n (ties count as n)

Query string: Does this compound meet the criterion Ki < 10 nM? `CC(=O)NCCc1c(Cc2ccccc2)[nH]c2ccccc12`
Result string: n

Query string: hey, is Ki for `N#CN1CC[C@@H](NC(=O)c2ccc(-c3cnc4nccn4c3)cc2F)C1` lower than 10 nM or not?
Result string: n

Query string: Given the entry CCC(=O)NC1Cc2ccccc2C(c2ccccc2)C1 (stereo not given) , would its reported Ki be below 10 nM?
Result string: y

Query string: Dear reviewer, please state whether `CC(=O)NCCN1CCc2ccc3c(c21)CCO3` has Ki strictly beneath 10 nM.
Result string: y

Query string: Below 10 nM on Ki? Entry `COc1ccc(Cc2[nH]c3ccccc3c2CCNC(C)=O)cc1`
Result string: n
